- method: clinical
- condition_context: human, in vivo, 500 mg, CL
reported_property: clearance (mL/min)
Report only the number, with the unit mL/min understood.

clearance recorded for this compound, `CN[C@H]1C(=O)N[C@@H]2Cc3ccc(cc3)Oc3cc4cc(c3O[C@@H]3O[C@H](C(=O)O)[C@@H](O)[C@H](O)[C@H]3NC(=O)CCCCCCCCC(C)C)Oc3ccc(cc3Cl)[C@@H](O)[C@@H]3NC(=O)[C@H](NC(=O)[C@@H]4NC(=O)[C@@H](NC2=O)c2cc(cc(O)c2Cl)Oc2cc1ccc2O)c1ccc(O)c(c1)-c1c(O[C@H]2O[C@H](CO)[C@@H](O)[C@H](O)[C@@H]2O)cc(O)cc1[C@@H](C(=O)NCCCN(C)C)NC3=O` , is 0.37

* * *

- method: Pharmacokinetics and safety in subjects with renal impairment / ESRD (VER001-3, -11, -13)
- condition_context: human, plasma, intravenous, 500 mg, t1/2, Severe Renal Impairment (N = 6), VER001-11, single dose 500 mg
reported_property: half-life (days)
// return numeric value only (unit: days, not printed)

Recorded result, CN[C@H]1C(=O)N[C@@H]2Cc3ccc(cc3)Oc3cc4cc(c3O[C@@H]3O[C@H](C(=O)O)[C@@H](O)[C@H](O)[C@H]3NC(=O)CCCCCCCCC(C)C)Oc3ccc(cc3Cl)[C@@H](O)[C@@H]3NC(=O)[C@H](NC(=O)[C@@H]4NC(=O)[C@@H](NC2=O)c2cc(cc(O)c2Cl)Oc2cc1ccc2O)c1ccc(O)c(c1)-c1c(O[C@H]2O[C@H](CO)[C@@H](O)[C@H](O)[C@@H]2O)cc(O)cc1[C@@H](C(=O)NCCCN(C)C)NC3=O [Dalbavancin] , half-life: 18.9

* * *

- method: Pharmacokinetics and safety in subjects with hepatic impairment (VER001-12)
- condition_context: human, in vivo, intravenous, t1/2, Normal Hepatic Function (N = 9); 1000 mg Day 1 and 500 mg Day 8; Mean (±SD)
reported_property: half-life (days)
Note: unit days is implicit; provide only the numeric part.

The reported value for `CN[C@H]1C(=O)N[C@@H]2Cc3ccc(cc3)Oc3cc4cc(c3O[C@@H]3O[C@H](C(=O)O)[C@@H](O)[C@H](O)[C@H]3NC(=O)CCCCCCCCC(C)C)Oc3ccc(cc3Cl)[C@@H](O)[C@@H]3NC(=O)[C@H](NC(=O)[C@@H]4NC(=O)[C@@H](NC2=O)c2cc(cc(O)c2Cl)Oc2cc1ccc2O)c1ccc(O)c(c1)-c1c(O[C@H]2O[C@H](CO)[C@@H](O)[C@H](O)[C@@H]2O)cc(O)cc1[C@@H](C(=O)NCCCN(C)C)NC3=O` in terms of half-life is 13.4

* * *

- method: clinical
- condition_context: human, in vivo, 1000 mg, AUC 14
reported_property: AUC

# compound `CN[C@H]1C(=O)N[C@@H]2Cc3ccc(cc3)Oc3cc4cc(c3O[C@@H]3O[C@H](C(=O)O)[C@@H](O)[C@H](O)[C@H]3NC(=O)CCCCCCCCC(C)C)Oc3ccc(cc3Cl)[C@@H](O)[C@@H]3NC(=O)[C@H](NC(=O)[C@@H]4NC(=O)[C@@H](NC2=O)c2cc(cc(O)c2Cl)Oc2cc1ccc2O)c1ccc(O)c(c1)-c1c(O[C@H]2O[C@H](CO)[C@@H](O)[C@H](O)[C@@H]2O)cc(O)cc1[C@@H](C(=O)NCCCN(C)C)NC3=O` ; its AUC = ~22000 µg·h/mL

* * *

- method: clinical
- condition_context: human, in vivo, 500 mg, AUC
reported_property: AUC (µg·h/mL)
Supply the numeric figure in µg·h/mL, leaving out any unit text.

Entry `CN[C@H]1C(=O)N[C@@H]2Cc3ccc(cc3)Oc3cc4cc(c3O[C@@H]3O[C@H](C(=O)O)[C@@H](O)[C@H](O)[C@H]3NC(=O)CCCCCCCCC(C)C)Oc3ccc(cc3Cl)[C@@H](O)[C@@H]3NC(=O)[C@H](NC(=O)[C@@H]4NC(=O)[C@@H](NC2=O)c2cc(cc(O)c2Cl)Oc2cc1ccc2O)c1ccc(O)c(c1)-c1c(O[C@H]2O[C@H](CO)[C@@H](O)[C@H](O)[C@@H]2O)cc(O)cc1[C@@H](C(=O)NCCCN(C)C)NC3=O` , AUC reported as 24400

* * *

- method: Pharmacokinetics and safety in subjects with renal impairment / ESRD (VER001-3, -11, -13)
- condition_context: human, plasma, intravenous, 1000 mg, t1/2, Severe Renal Impairment (N = 4), VER001-11, single dose 1000 mg
reported_property: half-life
Form entry: enter the amount, then its unit.

According to the records, this compound `CN[C@H]1C(=O)N[C@@H]2Cc3ccc(cc3)Oc3cc4cc(c3O[C@@H]3O[C@H](C(=O)O)[C@@H](O)[C@H](O)[C@H]3NC(=O)CCCCCCCCC(C)C)Oc3ccc(cc3Cl)[C@@H](O)[C@@H]3NC(=O)[C@H](NC(=O)[C@@H]4NC(=O)[C@@H](NC2=O)c2cc(cc(O)c2Cl)Oc2cc1ccc2O)c1ccc(O)c(c1)-c1c(O[C@H]2O[C@H](CO)[C@@H](O)[C@H](O)[C@@H]2O)cc(O)cc1[C@@H](C(=O)NCCCN(C)C)NC3=O` displays half-life of 19.5 days

* * *

- method: clinical
- condition_context: human, in vivo, 1000 mg, AUC42
reported_property: AUC (µg·h/mL)
Give the number; µg·h/mL is assumed, so skip it.

Looking up CN[C@H]1C(=O)N[C@@H]2Cc3ccc(cc3)Oc3cc4cc(c3O[C@@H]3O[C@H](C(=O)O)[C@@H](O)[C@H](O)[C@H]3NC(=O)CCCCCCCCC(C)C)Oc3ccc(cc3Cl)[C@@H](O)[C@@H]3NC(=O)[C@H](NC(=O)[C@@H]4NC(=O)[C@@H](NC2=O)c2cc(cc(O)c2Cl)Oc2cc1ccc2O)c1ccc(O)c(c1)-c1c(O[C@H]2O[C@H](CO)[C@@H](O)[C@H](O)[C@@H]2O)cc(O)cc1[C@@H](C(=O)NCCCN(C)C)NC3=O [Dalbavancin] , I found its AUC recorded as 23100

* * *

- method: clinical
- condition_context: human, in vivo, 500 mg, AUC0-inf
reported_property: AUC(0-inf)
Put your answer as a value accompanied by its unit after it.

AUC(0-inf) reading for CN[C@H]1C(=O)N[C@@H]2Cc3ccc(cc3)Oc3cc4cc(c3O[C@@H]3O[C@H](C(=O)O)[C@@H](O)[C@H](O)[C@H]3NC(=O)CCCCCCCCC(C)C)Oc3ccc(cc3Cl)[C@@H](O)[C@@H]3NC(=O)[C@H](NC(=O)[C@@H]4NC(=O)[C@@H](NC2=O)c2cc(cc(O)c2Cl)Oc2cc1ccc2O)c1ccc(O)c(c1)-c1c(O[C@H]2O[C@H](CO)[C@@H](O)[C@H](O)[C@@H]2O)cc(O)cc1[C@@H](C(=O)NCCCN(C)C)NC3=O [Dalbavancin] : 24100 µg·h/mL

* * *

- method: clinical
- condition_context: human, in vivo, 1000 mg, AUC14
reported_property: AUC (µg·h/mL)
Provide only the numeric value, understood in µg·h/mL.

For `CN[C@H]1C(=O)N[C@@H]2Cc3ccc(cc3)Oc3cc4cc(c3O[C@@H]3O[C@H](C(=O)O)[C@@H](O)[C@H](O)[C@H]3NC(=O)CCCCCCCCC(C)C)Oc3ccc(cc3Cl)[C@@H](O)[C@@H]3NC(=O)[C@H](NC(=O)[C@@H]4NC(=O)[C@@H](NC2=O)c2cc(cc(O)c2Cl)Oc2cc1ccc2O)c1ccc(O)c(c1)-c1c(O[C@H]2O[C@H](CO)[C@@H](O)[C@H](O)[C@@H]2O)cc(O)cc1[C@@H](C(=O)NCCCN(C)C)NC3=O` the molecule record lists AUC as 17700

* * *

Overview of reported MIC across a group of compounds:
- Tested on: gram positive bacteria
- method: MIC by broth microdilution (NCCLS), with or without 30% bovine serum (Table 42)
- Format: cell-based
- condition_context: Bacillus subtilis ATCC 6633

C[C@@H]1[C@H](O)[C@@H](C)/C=C/C=C/C=C/C=C/C=C/C=C/C=C/[C@H](O[C@@H]2O[C@H](C)[C@@H](O)[C@H](N)[C@@H]2O)C[C@@H]2O[C@](O)(C[C@@H](O)C[C@@H](O)[C@H](O)CC[C@@H](O)C[C@@H](O)CC(=O)O[C@H]1C)C[C@H](O)[C@H]2C(=O)O [Amphotericin B]	>64 µg/mL

As a next step, examine the compound that follows.
Recorded MIC (compound CN[C@H](CC(C)C)C(=O)N[C@H]1C(=O)N[C@@H](CC(N)=O)C(=O)N[C@H]2C(=O)N[C@H]3C(=O)N[C@H](C(=O)N[C@H](C(=O)O)c4cc(O)cc(O)c4-c4cc3ccc4O)[C@H](O)c3ccc(c(Cl)c3)Oc3cc2cc(c3O[C@@H]2O[C@H](CO)[C@@H](O)[C@H](O)[C@H]2O[C@H]2C[C@](C)(N)[C@H](O)[C@H](C)O2)Oc2ccc(cc2Cl)[C@H]1O [Vancomycin] ): ≤ 0.125 µg/mL
